Conditions: parabacteroides distasonis, 12 h, 2 µM
Description: The drug is tested on Parabacteroides distasonis strain: ATCC8503 for biotransformation. The drug concentrations were measured before and after a 12-h incubation by liquid-chromatography-coupled mass spectrometry (LC–MS)
test-readout: Bacterial Biotransformation

Examples from the recorded data:
test-smiles | Bacterial Biotransformation
CC[C@@]1(O)C(=O)OCc2c1cc1n(c2=O)Cc2cc3c(CN(C)C)c(O)ccc3nc2-1 | Compound NOT metabolized
CC[C@H](C)C(=O)O[C@H]1C[C@@H](C)C=C2C=C[C@H](C)[C@H](CC[C@@H]3C[C@@H](O)CC(=O)O3)[C@H]21 | Compound metabolized
N[C@@H](Cc1ccc(N(CCCl)CCCl)cc1)C(=O)O | Compound metabolized
Cc1nc(-c2ccc(OCC(C)C)c(C#N)c2)sc1C(=O)O | Compound NOT metabolized
O=c1[nH]c2ccccc2n1CCCN1CCC(n2c(=O)[nH]c3cc(Cl)ccc32)CC1 | Compound NOT metabolized
CCc1nn(CCCN2CCN(c3cccc(Cl)c3)CC2)c(=O)n1CCOc1ccccc1 | Compound NOT metabolized
OC(Cn1cncn1)(Cn1cncn1)c1ccc(F)cc1F | Compound NOT metabolized
N#Cc1ccc2[nH]cc(CCCCN3CCN(c4ccc5oc(C(N)=O)cc5c4)CC3)c2c1 | Compound metabolized

// next entry
Query: Reported Bacterial Biotransformation, compound `CCCCc1nc(Cl)c(CO)n1Cc1ccc(-c2ccccc2-c2nn[nH]n2)cc1` : ____
Result: Compound metabolized

====

Experiment: The drug is tested on Bacteroides caccae strain: ATCC43185 for biotransformation. The drug concentrations were measured before and after a 12-h incubation by liquid-chromatography-coupled mass spectrometry (LC–MS)
Settings: 2 µM
test-readout: Bacterial Biotransformation

Examples from the recorded data:
molecule | Bacterial Biotransformation
Cc1ccccc1C(OCCN(C)C)c1ccccc1.O=C(O)CC(O)(CC(=O)O)C(=O)O (stereo unspecified) [ORPHENADRINE CITRATE] | Compound NOT metabolized
CN1C(=O)CCS(=O)(=O)C1c1ccc(Cl)cc1 (stereo unspecified) [CHLORMEZANONE] | Compound NOT metabolized
CC(Oc1c(Cl)cccc1Cl)C1=NCCN1 (stereo unspecified) [LOFEXIDINE] | Compound metabolized
N#Cc1ccc2[nH]cc(CCCCN3CCN(c4ccc5oc(C(N)=O)cc5c4)CC3)c2c1 [VILAZODONE] | Compound metabolized
CC(C(=O)O)c1ccc2c(c1)Cc1cccnc1O2 (stereo unspecified) [PRANOPROFEN] | Compound metabolized

Query: Reported Bacterial Biotransformation, molecule COCCCC/C(=N\OCCN)c1ccc(C(F)(F)F)cc1.O=C(O)/C=C\C(=O)O [FLUVOXAMINE MALEATE] : ____
Result: Compound NOT metabolized

Query: Reported Bacterial Biotransformation, molecule CN(C)CCC=C1c2ccccc2COc2ccccc21 [DOXEPIN] : ____
Result: Compound NOT metabolized

Query: Reported Bacterial Biotransformation, molecule Cc1nc(Nc2ncc(C(=O)Nc3c(C)cccc3Cl)s2)cc(N2CCN(CCO)CC2)n1.O [DASATINIB] : ____
Result: Compound NOT metabolized

Query: Reported Bacterial Biotransformation, molecule COc1ccccc1N1CCN(CC(O)COc2cccc3ccccc23)CC1 (stereo unspecified) [NAFTOPIDIL] : ____
Result: Compound NOT metabolized

Query: Reported Bacterial Biotransformation, molecule O=C([O-])C[C@H](O)C[C@H](O)/C=C/c1c(C2CC2)nc2ccccc2c1-c1ccc(F)cc1.O=C([O-])C[C@H](O)C[C@H](O)/C=C/c1c(C2CC2)nc2ccccc2c1-c1ccc(F)cc1.[Ca+2] [PITAVASTATIN CALCIUM] : ____
Result: Compound NOT metabolized

Query: Reported Bacterial Biotransformation, molecule CC(=O)O[C@]1(C(C)=O)CC[C@H]2[C@@H]3C=C(Cl)C4=CC(=O)[C@@H]5C[C@@H]5[C@]4(C)[C@H]3CC[C@@]21C [CYPROTERONE ACETATE] : ____
Result: Compound NOT metabolized

Query: Reported Bacterial Biotransformation, molecule O=C(O)c1cc(/N=N/c2ccc(S(=O)(=O)Nc3ccccn3)cc2)ccc1O [SULFASALAZINE] : ____
Result: Compound metabolized

Query: Reported Bacterial Biotransformation, molecule `CN1CC(=O)N2[C@H](c3ccc4c(c3)OCO4)c3[nH]c4ccccc4c3C[C@@H]2C1=O` : ____
Result: Compound NOT metabolized

Query: Reported Bacterial Biotransformation, molecule Cc1ccnc2c1NC(=O)c1cccnc1N2C1CC1 [NEVIRAPINE] : ____
Result: Compound NOT metabolized

Query: Reported Bacterial Biotransformation, molecule CC[C@H](C)C(=O)O[C@H]1C[C@@H](C)C=C2C=C[C@H](C)[C@H](CC[C@@H]3C[C@@H](O)CC(=O)O3)[C@H]21 [LOVASTATIN] : ____
Result: Compound NOT metabolized

Query: Reported Bacterial Biotransformation, molecule COc1ccccc1OCC(O)COC(N)=O (stereo unspecified) [METHOCARBAMOL] : ____
Result: Compound NOT metabolized
